# PROCEDURE DETAILS: Single dose PK in healthy subjects (Cohorts 1, 2, S1 and S2), plasma
# Assay type: in vivo, human
# CONDITION SUMMARY: human, plasma, iv, 7 mg, 7 mg single IV infusion, healthy subjects; read-out: Cmax Geo Mean
# Excerpt: […]
MEASURED ATTRIBUTE: Cmax (ng/mL)
A number alone suffices; assume ng/mL.

[in] Supply Cmax value. Item: COC(=O)N1CCC[C@H](NS(C)(=O)=O)[C@@H]1CO[C@H]1CC[C@@H](c2ccccc2)CC1
[out] 16.7

====

# PROCEDURE DETAILS: Single dose PK in healthy subjects (Cohorts 1, 2, S1 and S2), plasma
# Format: in vivo, human
# CONDITION SUMMARY: human, plasma, iv, 14 mg, 14 mg single IV infusion, healthy subjects; read-out: Ceoi Geo Mean
MEASURED ATTRIBUTE: concentration at 9 h
Remember to put the unit after the number in your answer.

[in] Supply concentration at 9 h value. Item: COC(=O)N1CCC[C@H](NS(C)(=O)=O)[C@@H]1CO[C@H]1CC[C@@H](c2ccccc2)CC1 [Compound A]
[out] 29.8 ng/mL

====

# PROCEDURE DETAILS: Single dose PK in healthy subjects (Cohorts 1, 2, S1 and S2), plasma
# Format: in vivo, human
# CONDITION SUMMARY: human, plasma, intravenous, 56 mg; 8 hr; read-out: Plasma concentration, Mean
MEASURED ATTRIBUTE: concentration at 8 hr

[in] Supply concentration at 8 hr value. Item: COC(=O)N1CCC[C@H](NS(C)(=O)=O)[C@@H]1CO[C@H]1CC[C@@H](c2ccccc2)CC1 [Compound A]
[out] 102 ng/mL

====

# PROCEDURE DETAILS: Single dose PK in healthy subjects (Cohorts 1, 2, S1 and S2), plasma
# Assay type: in vivo, human
# CONDITION SUMMARY: human, plasma, intravenous, 134.4 mg; 1.5 hr; read-out: Plasma concentration, Maximum
MEASURED ATTRIBUTE: concentration at 1.5 h (ng/mL)
A number alone suffices; assume ng/mL.

[in] Supply concentration at 1.5 h value. Item: COC(=O)N1CCC[C@H](NS(C)(=O)=O)[C@@H]1CO[C@H]1CC[C@@H](c2ccccc2)CC1
[out] 289

====

# PROCEDURE DETAILS: Single dose PK in healthy subjects (Cohorts 1, 2, S1 and S2), plasma
# Assay type: in vivo, human
# CONDITION SUMMARY: human, plasma, intravenous, 28 mg; 8 hr; read-out: Plasma concentration, Maximum
MEASURED ATTRIBUTE: concentration at 8 hr (ng/mL)
A number alone suffices; assume ng/mL.

[in] Supply concentration at 8 hr value. Item: COC(=O)N1CCC[C@H](NS(C)(=O)=O)[C@@H]1CO[C@H]1CC[C@@H](c2ccccc2)CC1
[out] 58.8

====

# PROCEDURE DETAILS: Single dose PK in healthy subjects (Cohorts 1, 2, S1 and S2), plasma
# Assay type: in vivo, human
# CONDITION SUMMARY: human, plasma, intravenous, 14 mg; 3 hr; read-out: Plasma concentration, Q1
# Description: […]
MEASURED ATTRIBUTE: concentration at 3 h
Remember to put the unit after the number in your answer.

[in] Supply concentration at 3 h value. Item: COC(=O)N1CCC[C@H](NS(C)(=O)=O)[C@@H]1CO[C@H]1CC[C@@H](c2ccccc2)CC1
[out] 32.1 ng/mL

====

# PROCEDURE DETAILS: Single dose PK in healthy subjects (Cohorts 1, 2, S1 and S2), plasma
# Assay type: in vivo, human
# CONDITION SUMMARY: human, plasma, intravenous, 7 mg; 0.5 hr After End of Infusion; read-out: Plasma concentration, Mean
MEASURED ATTRIBUTE: concentration at 0.5 h after end of infusion (ng/mL)
A number alone suffices; assume ng/mL.

[in] Supply concentration at 0.5 h after end of infusion value. Item: COC(=O)N1CCC[C@H](NS(C)(=O)=O)[C@@H]1CO[C@H]1CC[C@@H](c2ccccc2)CC1
[out] 6.73

====

# PROCEDURE DETAILS: Single dose PK in healthy subjects (Cohorts 1, 2, S1 and S2), plasma
# Type: in vivo, human
# CONDITION SUMMARY: human, plasma, intravenous, 180 mg; 2 hr; read-out: Plasma concentration, Mean
# Text: […]
MEASURED ATTRIBUTE: concentration at 2 h (ng/mL)
A number alone suffices; assume ng/mL.

[in] Supply concentration at 2 h value. Item: COC(=O)N1CCC[C@H](NS(C)(=O)=O)[C@@H]1CO[C@H]1CC[C@@H](c2ccccc2)CC1
[out] 294

====

# PROCEDURE DETAILS: Multiple-dose PK of intravenous Compound A in patients with NT1 (Cohorts B1, B2), plasma
# Format: in vivo, human
# CONDITION SUMMARY: human, plasma, intravenous, 11 mg; Day 1; read-out: AUCtau, Mean
MEASURED ATTRIBUTE: AUC (ng·h/mL)
A number alone suffices; assume ng·h/mL.

[in] Supply AUC value. Item: COC(=O)N1CCC[C@H](NS(C)(=O)=O)[C@@H]1CO[C@H]1CC[C@@H](c2ccccc2)CC1 [Compound A]
[out] 165

====

# PROCEDURE DETAILS: Single dose PK in healthy subjects (Cohorts 1, 2, S1 and S2), plasma
# Assay type: in vivo, human
# CONDITION SUMMARY: human, plasma, intravenous, 240 mg; 4 hr; read-out: Plasma concentration, Q1
MEASURED ATTRIBUTE: concentration at 4 hr (ng/mL)
A number alone suffices; assume ng/mL.

[in] Supply concentration at 4 hr value. Item: COC(=O)N1CCC[C@H](NS(C)(=O)=O)[C@@H]1CO[C@H]1CC[C@@H](c2ccccc2)CC1 [Compound A]
[out] 423

====

# PROCEDURE DETAILS: Single dose PK in healthy subjects (Cohorts 1, 2, S1 and S2), plasma
# Assay type: in vivo, human
# CONDITION SUMMARY: human, plasma, iv, 240 mg, 240 mg single IV infusion; 4 hr After End of Infusions; read-out: Plasma Concentration of Cmpd A, Median
MEASURED ATTRIBUTE: concentration at 4 h after end of infusion (ng/mL)
A number alone suffices; assume ng/mL.

[in] Supply concentration at 4 h after end of infusion value. Item: COC(=O)N1CCC[C@H](NS(C)(=O)=O)[C@@H]1CO[C@H]1CC[C@@H](c2ccccc2)CC1
[out] 56.5

====

# PROCEDURE DETAILS: Single dose PK in healthy subjects (Cohorts 1, 2, S1 and S2), plasma
# Assay type: in vivo, human
# CONDITION SUMMARY: human, plasma, intravenous, 56 mg; 8 hr; read-out: Plasma concentration, Minimum
MEASURED ATTRIBUTE: concentration at 8 hr (ng/mL)
A number alone suffices; assume ng/mL.

[in] Supply concentration at 8 hr value. Item: COC(=O)N1CCC[C@H](NS(C)(=O)=O)[C@@H]1CO[C@H]1CC[C@@H](c2ccccc2)CC1 [Compound A]
[out] 84.9

====

# PROCEDURE DETAILS: Single dose PK in healthy subjects (Cohorts 1, 2, S1 and S2), plasma
# Format: in vivo, human
# CONDITION SUMMARY: human, plasma, intravenous, 7 mg; 2 hr; read-out: Plasma concentration, Median
MEASURED ATTRIBUTE: concentration at 2 h (ng/mL)
A number alone suffices; assume ng/mL.

[in] Supply concentration at 2 h value. Item: COC(=O)N1CCC[C@H](NS(C)(=O)=O)[C@@H]1CO[C@H]1CC[C@@H](c2ccccc2)CC1 [Compound A]
[out] 14.9

====

# PROCEDURE DETAILS: Single dose PK in healthy subjects (Cohorts 1, 2, S1 and S2), plasma
# Type: in vivo, human
# CONDITION SUMMARY: human, plasma, intravenous, 28 mg; 1 hr; read-out: Plasma concentration, Minimum
# Source text: […]
MEASURED ATTRIBUTE: concentration at 1 hr (ng/mL)
A number alone suffices; assume ng/mL.

[in] Supply concentration at 1 hr value. Item: COC(=O)N1CCC[C@H](NS(C)(=O)=O)[C@@H]1CO[C@H]1CC[C@@H](c2ccccc2)CC1
[out] 21.7

====

# PROCEDURE DETAILS: Single dose PK in healthy subjects (Cohorts 1, 2, S1 and S2), plasma
# Format: in vivo, human
# CONDITION SUMMARY: human, plasma, intravenous, 240 mg; 1 hr; read-out: Plasma concentration, Q1
MEASURED ATTRIBUTE: concentration at 1 hr (ng/mL)
A number alone suffices; assume ng/mL.

[in] Supply concentration at 1 hr value. Item: COC(=O)N1CCC[C@H](NS(C)(=O)=O)[C@@H]1CO[C@H]1CC[C@@H](c2ccccc2)CC1 [Compound A]
[out] 286
